Numbers sourced from patent US20260125382A1.

TARGET SYSTEM: CDK9 (Homo sapiens)
Construct: endogenous in cells; host or cells: MDA-MB-231
EXPERIMENT NOTES: CDK protein degradation activity (Western blotting), CDK9
Format: cell-based
PARTICULARS: MDA-MB-231 cells, 0.1 μM, 16 hours, Western blot
EXPERIMENTAL READOUT: Enzyme degradation CDK9 (% remaining) @ 0.1 μM

Give Enzyme degradation CDK9 (% remaining) @ 0.1 μM for Cc1cccc(C(=O)NC2CC(n3cnc4c(NCc5cccc(N6CCN(CC7CCN(C(=O)COc8ccc9c(c8)C(=O)N([C@H]8CCC(=O)NC8=O)C9=O)CC7)CC6)c5)ncnc43)C2)n1 (stereo partly shown) tested on CDK9 (Homo sapiens).
80%

Report value only: Enzyme degradation CDK9 (% remaining) @ 0.1 μM, CDK9 (Homo sapiens), O=C1CC[C@H](N2C(=O)c3cccc(N4CCC(CN5CCC(c6ccc(Nc7ncnc8c7ncn8C7CC(NC(=O)Cc8ccccc8)C7)cc6)CC5)CC4)c3C2=O)C(=O)N1 (stereo partly shown)
20%

Check CDK9 (Homo sapiens) data and give Enzyme degradation CDK9 (% remaining) @ 0.1 μM for `O=C1CC[C@H](N2C(=O)c3cccc(N4CCC(CN5CCN(c6ccc(Nc7ncnc8c7ncn8[C@H]7C[C@@H](NC(=O)c8c(Cl)cccc8Cl)C7)cc6)CC5)CC4)c3C2=O)C(=O)N1` .
0/0/0%

Report its Enzyme degradation CDK9 (% remaining) @ 0.1 μM with CDK9 (Homo sapiens) as the test system: O=C1CC[C@H](N2C(=O)c3cccc(CCCN4CCC(CN5CCN(c6ccc(Nc7ncnc8c7ncn8C7CC(NC(=O)c8cccc(C(F)(F)F)n8)C7)cc6)CC5)CC4)c3C2=O)C(=O)N1 (stereo partly shown)
0%

Quote Enzyme degradation CDK9 (% remaining) @ 0.1 μM with test system CDK9 (Homo sapiens) for O=C1CCC(N2C(=O)c3ccc(N4CCC(CN5CCN(c6ccc(Nc7ncnc8c7ncn8[C@H]7C[C@@H](NC(=O)c8cccc(Cl)n8)C7)cc6)CC5)CC4)cc3C2=O)C(=O)N1 (stereo partly shown)
0/0/0%

Report the value of Enzyme degradation CDK9 (% remaining) @ 0.1 μM obtained on CDK9 (Homo sapiens) for O=C1CC[C@H](n2nnc3ccc(N4CCC(CN5CCN(c6ccc(Nc7ncnc8c7ncn8C7CC(NC(=O)c8c(Cl)cccc8Cl)C7)cc6)CC5)CC4)cc3c2=O)C(=O)N1 (stereo partly shown) .
0/0/0%

Write Enzyme degradation CDK9 (% remaining) @ 0.1 μM of Cc1cccc(C(=O)NC2CC(n3cnc4c(NCCCN5CCN(CC6CCN(C(=O)CNc7cccc8c7C(=O)N([C@@H]7CCC(=O)NC7=O)C8=O)CC6)CC5)ncnc43)C2)n1 (stereo partly shown) ; system used: CDK9 (Homo sapiens)
0/0/0%

State Enzyme degradation CDK9 (% remaining) @ 0.1 μM (CDK9 (Homo sapiens)) of O=C1CC[C@H](N2C(=O)c3ccc(NCC(=O)N4CCC5(CC4)CC(N4CCN(c6ccc(Nc7ncnc8c7ncn8C7CC(NC(=O)c8c(Cl)cccc8Cl)C7)cc6)CC4)C5)cc3C2=O)C(=O)N1 (stereo partly shown) .
0/0/0%

Retrieve Enzyme degradation CDK9 (% remaining) @ 0.1 μM on CDK9 (Homo sapiens); query `O=C1CC[C@H](N2C(=O)c3ccc(OCC(=O)N4CCC(CN5CCN(c6ccc(Nc7ncnc8c7ncn8[C@H]7C[C@@H](NC(=O)c8c(Cl)cccc8Cl)C7)cc6)CC5)CC4)cc3C2=O)C(=O)N1`
0/0/0%

Quote CDK9 (Homo sapiens) Enzyme degradation CDK9 (% remaining) @ 0.1 μM for entry Cc1cccc(C(=O)NC2CC(n3cnc4c(Nc5ccc(N6CCN(CC7CCN(c8ccc9nnn([C@H]%10CCC(=O)NC%10=O)c(=O)c9c8)CC7)CC6)cc5)ncnc43)C2)n1 (stereo partly shown) .
0/0/0%

* * *

TARGET SYSTEM: CDK2 (Homo sapiens, UniProt P24941)
Construct: endogenous in cells; host or cells: MDA-MB-231
EXPERIMENT NOTES: CDK protein degradation activity (Western blotting), CDK2
Assay type: cell-based
PARTICULARS: MDA-MB-231 cells, 10 μM, 16 hours, Western blot
Hi there, I'd appreciate the recorded Enzyme degradation CDK2 (% remaining) @ 10 μM for every entry that follows.
Output spec: scalar in %, unitless text.

Query Enzyme degradation CDK2 (% remaining) @ 10 μM for `Cc1cccc(C(=O)N[C@H]2C[C@@H](n3cnc4c(NC5CCN(CCCN6CCN(C(=O)CNc7cccc8c7C(=O)N([C@H]7CCC(=O)NC7=O)C8=O)CC6)CC5)ncnc43)C2)n1`
20

Tell me Enzyme degradation CDK2 (% remaining) @ 10 μM reported for Cc1cccc(C(=O)NC2CC(n3cnc4c(NCCCN5CCN(C(=O)CNc6cccc7c6C(=O)N([C@@H]6CCC(=O)NC6=O)C7=O)CC5)ncnc43)C2)n1 (some centres unmarked)
80

Identify measured Enzyme degradation CDK2 (% remaining) @ 10 μM corresponding to `Cc1cccc(C(=O)N[C@H]2C[C@@H](n3cnc4c(NCc5cccc(OCC6CCN(C(=O)COc7ccc8c(c7)C(=O)N([C@H]7CCC(=O)NC7=O)C8=O)CC6)c5)ncnc43)C2)n1`
90

* * *

TARGET SYSTEM: CDK9 (Homo sapiens, UniProt P50750)
Construct: endogenous in cells; host or cells: MDA-MB-231
Sequence (P50750 whole entry): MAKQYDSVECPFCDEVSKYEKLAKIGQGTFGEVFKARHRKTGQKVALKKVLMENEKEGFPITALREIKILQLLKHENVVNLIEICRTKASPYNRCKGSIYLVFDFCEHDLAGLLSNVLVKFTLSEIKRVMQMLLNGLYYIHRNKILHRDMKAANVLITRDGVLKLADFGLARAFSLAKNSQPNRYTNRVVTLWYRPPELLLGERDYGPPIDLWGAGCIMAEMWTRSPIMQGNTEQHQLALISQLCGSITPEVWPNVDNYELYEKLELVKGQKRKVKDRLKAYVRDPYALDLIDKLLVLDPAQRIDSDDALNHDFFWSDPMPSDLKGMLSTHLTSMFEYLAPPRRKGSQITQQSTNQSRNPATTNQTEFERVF
EXPERIMENT NOTES: CDK protein degradation activity (Western blotting), CDK9
Type: cell-based
PARTICULARS: MDA-MB-231 cells, 0.1 μM, 16 hours, Western blot
EXPERIMENTAL READOUT: Enzyme degradation CDK9 (% remaining) @ 0.1 μM

Using known records, supply Enzyme degradation CDK9 (% remaining) @ 0.1 μM for O=C1CC[C@@H](c2ccc(OCC(=O)N3CCC4(CC3)CC(N3CCC(c5ccc(Nc6ncnc7c6ncn7C6CC(NC(=O)Cc7ccccc7)C6)cc5)CC3)C4)cc2)C(=O)N1 (stereo partly shown) [Compound 284]
0/0/0%

Supply reported Enzyme degradation CDK9 (% remaining) @ 0.1 μM belonging to this molecule: Cc1cccc(C(=O)NC2CC(n3cnc4c(Nc5ccc(N6CCN(CC7CCN(c8cccc9c8C(=O)N([C@H]8CCC(=O)NC8=O)C9=O)CC7)CC6)cc5)ncnc43)C2)n1 (stereo partly shown) [Compound 89]
10%

Dear colleague, please send me the reported Enzyme degradation CDK9 (% remaining) @ 0.1 μM for Cc1cccc(C(=O)N[C@H]2C[C@@H](n3cnc4c(NCc5cccc(OCCCN6CCN(C(=O)CNc7ccc8c(c7)C(=O)N([C@H]7CCC(=O)NC7=O)C8=O)CC6)c5)ncnc43)C2)n1 [Compound 102] when you can.
90%

Tell me its Enzyme degradation CDK9 (% remaining) @ 0.1 μM given O=C1CC[C@H](N2C(=O)c3ccc(N4CCC(CN5CCN(c6ccc(Nc7ncnc8c7ncn8[C@H]7C[C@@H](NC(=O)Cc8ccccc8)C7)cc6)CC5)CC4)cc3C2=O)C(=O)N1 [Compound 179] as the entry.
10%

State its Enzyme degradation CDK9 (% remaining) @ 0.1 μM: O=C1CC[C@H](N2C(=O)c3ccc(NCC(=O)N4CC(N5CCC6(CC5)CC(N5CCN(c7ccc(Nc8ncnc9c8ncn9C8CC(NC(=O)Cc9ccccc9)C8)cc7)CC5)C6)C4)cc3C2=O)C(=O)N1 (stereo partly shown) [Compound 278]
10%

Provide one value: measured Enzyme degradation CDK9 (% remaining) @ 0.1 μM of O=C1CC[C@H](N2C(=O)c3ccc(NCC(=O)N4CCC(CC(=O)N5CCN(c6ccc(Nc7ncnc8c7ncn8C7CC(NC(=O)Cc8ccccc8)C7)cc6)CC5)CC4)cc3C2=O)C(=O)N1 (stereo partly shown) [Compound 213]
70%

Indicate the recorded Enzyme degradation CDK9 (% remaining) @ 0.1 μM value for this molecule: N#Cc1cccc(C(=O)NC2CC(n3cnc4c(Nc5ccc(N6CCN(CC7CCN(c8ccc9c(c8)C(=O)N([C@H]8CCC(=O)NC8=O)C9=O)CC7)CC6)cc5)ncnc43)C2)n1 (stereo partly shown) [Compound 392]
0/0/0%

// Input: O=C1CC[C@H](N2C(=O)c3ccc(N4CC(C(=O)N5CCC(CN6CCC(CCNc7ncnc8c7ncn8[C@H]7C[C@@H](NC(=O)Cc8ccccc8)C7)CC6)CC5)C4)cc3C2=O)C(=O)N1 [Compound 411] . Output its Enzyme degradation CDK9 (% remaining) @ 0.1 μM only.
10/10/10%

# return recorded Enzyme degradation CDK9 (% remaining) @ 0.1 μM for input Cc1cccc(C(=O)NC2CC(n3cnc4c(Nc5ccc(N6CCN(C7CC8(CCN(c9ccc%10c(c9)C(=O)N([C@H]9CCC(=O)NC9=O)C%10=O)CC8)C7)CC6)cc5)ncnc43)C2)n1 (stereo partly shown) [Compound 384]
0/0/0%

Consider the molecule N#Cc1cccc(C(=O)N[C@H]2C[C@@H](n3cnc4c(Nc5ccc(N6CCN(CC7CCN(c8ccc9nnn([C@H]%10CCC(=O)NC%10=O)c(=O)c9c8)CC7)CC6)cc5)ncnc43)C2)n1 (racemic) [Compound 418] and give its recorded Enzyme degradation CDK9 (% remaining) @ 0.1 μM.
0/0/0%

Please indicate Enzyme degradation CDK9 (% remaining) @ 0.1 μM recorded for O=C1CC[C@@H](c2cccc(OCC(=O)N3CC(CN4CCC5(CC4)CC(N4CCN(c6ccc(Nc7ncnc8c7ncn8[C@H]7C[C@@H](NC(=O)Cc8ccccc8)C7)cc6)CC4)C5)C3)c2)C(=O)N1 [Compound 276]
10%

Give Enzyme degradation CDK9 (% remaining) @ 0.1 μM for the following molecule: Cc1cccc(C(=O)NC2CC(n3cnc4c(NCCC5CCN(CC6CCN(c7ccc8nnn([C@H]9CCC(=O)NC9=O)c(=O)c8c7)CC6)CC5)ncnc43)C2)n1 (stereo partly shown) [Compound 304]
20%

Tell me Enzyme degradation CDK9 (% remaining) @ 0.1 μM reported for COc1ccc(C(=O)N2CCC(CC(=O)N3CCN(c4ccc(Nc5ncnc6c5ncn6[C@H]5C[C@@H](NC(=O)Cc6ccccc6)C5)cc4)CC3)CC2)cc1N1CCC(=O)NC1=O [Compound 194]
70%

Give the measured Enzyme degradation CDK9 (% remaining) @ 0.1 μM for O=C1CC[C@@H](c2cccc(OCC(=O)N3CC(N4CCC5(CC4)CC(N4CCN(c6ccc(Nc7ncnc8c7ncn8[C@H]7C[C@@H](NC(=O)Cc8ccccc8)C7)cc6)CC4)C5)C3)c2)C(=O)N1 [Compound 274]
30/30/30%

Supply recorded Enzyme degradation CDK9 (% remaining) @ 0.1 μM for O=C1CC[C@H](N2C(=O)c3ccc(N4CC(C(=O)N5CCC6(CC5)CC(N5CCN(c7ccc(Nc8ncnc9c8ncn9[C@H]8C[C@@H](NC(=O)Cc9ccccc9)C8)cc7)CC5)C6)C4)cc3C2=O)C(=O)N1 [Compound 352] here.
20/20/20%

Indicate the recorded Enzyme degradation CDK9 (% remaining) @ 0.1 μM value for this molecule: N#Cc1cccc(C(=O)N[C@H]2C[C@@H](n3cnc4c(Nc5ccc(N6CCN(CC7CCN(C(=O)CNc8cccc9c8C(=O)N(C8CCC(=O)NC8=O)C9=O)CC7)CC6)cc5)ncnc43)C2)n1 (stereo partly shown) [Compound 420]
0/0/0%

Please indicate Enzyme degradation CDK9 (% remaining) @ 0.1 μM recorded for O=C1CC[C@@H](c2cccc(OCC(=O)N3CCC(CCCN4CCN(c5ccc(Nc6ncnc7c6ncn7C6CC(NC(=O)Cc7ccccc7)C6)cc5)CC4)CC3)c2)C(=O)N1 (stereo partly shown) [Compound 259]
0/0/0%

Provide measured Enzyme degradation CDK9 (% remaining) @ 0.1 μM value, entry: O=C1CC[C@H](N2C(=O)c3ccc(N4CC(C(=O)N5CCC(CCCN6CCN(c7ccc(Nc8ncnc9c8ncn9C8CC(NC(=O)Cc9ccccc9)C8)cc7)CC6)CC5)C4)cc3C2=O)C(=O)N1 (stereo partly shown) [Compound 372]
0/0/0%

State its Enzyme degradation CDK9 (% remaining) @ 0.1 μM for this molecule: O=C1CC[C@H](N2C(=O)c3cccc(CCCN4CCC(CN5CCN(c6ccc(Nc7ncnc8c7ncn8C7CC(NC(=O)c8cccc(F)n8)C7)cc6)CC5)CC4)c3C2=O)C(=O)N1 (stereo partly shown) [Compound 431]
0/0/0%
